The binders listed here are annotated with their Human AmyR3 potency [EC50 (pM)].
- test target: T1, human amylin-3 (a) receptor (human, UniProt P30988 25-474; O60896 24-148)
- T1 sequence (looked up) 1: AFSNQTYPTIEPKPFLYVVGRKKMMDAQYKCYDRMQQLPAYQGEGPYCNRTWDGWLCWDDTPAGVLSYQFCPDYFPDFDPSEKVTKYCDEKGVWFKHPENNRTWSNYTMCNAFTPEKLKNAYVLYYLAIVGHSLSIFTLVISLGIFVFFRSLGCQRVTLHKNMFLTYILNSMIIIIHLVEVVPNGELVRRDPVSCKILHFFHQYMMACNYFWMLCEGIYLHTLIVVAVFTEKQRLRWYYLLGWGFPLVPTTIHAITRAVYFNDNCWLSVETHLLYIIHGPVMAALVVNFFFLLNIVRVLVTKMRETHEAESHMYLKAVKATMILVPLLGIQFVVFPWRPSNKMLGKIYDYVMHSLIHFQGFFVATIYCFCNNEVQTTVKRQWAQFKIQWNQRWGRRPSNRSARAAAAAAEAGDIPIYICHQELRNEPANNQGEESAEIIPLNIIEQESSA
- T1 sequence (looked up) 2: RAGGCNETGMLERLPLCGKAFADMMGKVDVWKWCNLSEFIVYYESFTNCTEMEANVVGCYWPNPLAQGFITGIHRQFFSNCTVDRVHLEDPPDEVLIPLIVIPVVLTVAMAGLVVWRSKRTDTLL
- test protocol: cell-based or functional assay
Starred links: 1 amine or outer side, 2 acyl side, 3 side chain; linkers in the order of their positions; H or OH if unused. Non-standard residues stand in square brackets, D forms with d. Groups on a side chain read outwards from the residue. *: point of attachment. C16 diacid = O=C(O)CCCCCCCCCCCCCCC(=O)*; γGlu = O=C(O)[C@H](CCC(=O)[*:2])N[*:1]; AEEA = NCCOCCOCC(=O)O; Aib = CC(C)(N)C(=O)O
readout type: Human AmyR3 potency [EC50 (pM)]

# binder, uom, obs value
rows = [
    ("Compound 0284 (peptide) peptide: H[Aib]EGTFTSDVSSYLEEQAAREFIAWLVRGK([AEEA-AEEA-γGlu-C16 diacid])GGGGGEASELSTAALGRLSAELHELATLK([AEEA-AEEA-γGlu-C16 diacid])RTETGSGSP-NH2", "pM", 32.8),
    ("Compound 0297 (peptide) peptide: H[Aib]EGTFTSDVSSYLEEQAAREFIAWLVRK([AEEA-AEEA-γGlu-C16 diacid])RGGGGGASELSTAALGRLSK([AEEA-AEEA-γGlu-C16 diacid])ELHELATLPRTETGSGSP-NH2", "pM", 46),
]
